# Test system: RXF 393 renal
# ASSAY_NAME: NCI-60 one-dose screen, 48 h
# ASSAY_SETUP: 10 µM
About 83,000 compounds went through this panel and 20% of them were active in at least one assay; those are over-represented in the sample as a whole. Activity calls are given as the source filed them. The calls were made as follows: active = growth percent below 10; inactive = the rest.
Classes used: active, inactive

1) C=C1CCC2C3(C)COC(c4ccccc4F)OC3CCC2(C)C1C/C=C1/C(=O)OCC1O (stereo not given) | active
2) c1ccc(C(=C(c2ccc(OCCN3CCCCC3)cc2)c2ccc(OCCN3CCCCC3)cc2)C2CCCC2)cc1 | inactive
3) O=C(c1ccc(O)cc1)C1[C@H](c2ccc(Br)cc2)[C@@H](c2ccccc2)NC12C(=O)Nc1ccc(Br)cc12 (stereo not given in full) | active
4) NC1=NC(c2ccccc2Cl)N=C(Nc2nn[nH]n2)N1 (stereo not given) | inactive
5) C#CCNC(=O)[C@]12CCC(C)(C)C[C@H]1C1=CC[C@@H]3[C@@](C)(CCC#N)[C@H](C(=C)C)CC[C@@]3(C)[C@]1(C)CC2 | inactive
6) CO[C@H]1CSS[C@@H]1Cn1nc(-c2ccc(Oc3ccccc3)cc2)c2c(N)ncnc21 | inactive
7) O=c1nc(-c2ccccc2)cc(-c2cc3ccccc3nc2Cl)[nH]1 | active
8) O=C1NC(=NC23CC4CC(CC(C4)C2)C3)N/C1=C\c1ccc2ncoc2c1 | active
9) Cc1ccc(C(C)C)cc1NC(=O)c1ccccc1N(C)C | inactive
10) CO[C@@H]1CSSC1Cn1nc(-c2ccc(Oc3ccccc3)cc2)c2c(N)ncnc21 (stereo not given in full) | inactive
11) CCCCCc1ccc(S(=O)(=O)Nc2cc(-c3csc(N(C)C(C)=O)n3)ccc2N2CCN(C)CC2)cc1 | active
12) COc1ccsc1/C=N/NC(=O)c1[nH]c2ccc(Br)cc2c1-c1ccccc1 | inactive
13) COc1ccc(NC(=O)Nc2ccc(OCC(=O)N=Nc3c(O)[nH]c4ccc([N+](=O)[O-])cc34)cc2)cc1 | inactive
14) CN1C(=O)/C(=C/c2ccc3ncsc3c2)NC1=NC12CC3CC(CC(O)(C3)C1)C2 | active
15) O=C(Nc1ccccc1)Nc1nc2ccccc2s1 | inactive
16) C[C@H]1[C@H](C)CC[C@]2(COC(=O)CCC(=O)NCC#CCN3CCNCC3)CC[C@]3(C)C(=CC[C@@H]4[C@@]5(C)CCCNC(C)(C)[C@@H]5CC[C@]43C)[C@H]12 | inactive
17) Nc1nc(-c2ccccc2)cc(-c2cc3ccccc3nc2Cl)n1 | inactive
18) N#Cc1c(Cl)nc(SCc2ccc(F)cc2)nc1-c1ccc(F)cc1 | inactive
19) O=C(Nc1ccc(I)cc1)Nc1nc2ccc([N+](=O)[O-])cc2s1 | active
20) N#Cc1c(-c2ccc(F)cc2)nc(SCc2ccc([N+](=O)[O-])cc2)nc1N1CCOCC1 | active

====

// reported growth per item
# Test system: HCT-116 colon
# ASSAY_NAME: NCI-60 one-dose screen, 48 h (100 = growth as untreated, 0 = no growth, -100 = all killed)
# ASSAY_SETUP: 10 µM
The panel holds about 83,000 compounds, 20% with a hit somewhere; the sample as a whole holds those more often.
VALUE_KIND: growth (%)

1. CN1C(=O)N(C)C2SC(N/N=C/c3ccccc3F)=NC21 (stereo unspecified) | 37.5
2. CN1CCN(c2ccc(Nc3nc(N4CCN(S(=O)(=O)c5ccc(Cl)cc5)CC4)c4sccc4n3)cc2)CC1 | -49.9
3. Cc1ccc(S(=O)(=O)c2nc(-c3ccccc3)oc2S(=O)(=O)CC(=O)N2CCCC2)cc1 | 0.73
4. CN1CCN(Cc2ccc(C(=O)Nc3cccc(Nc4ccc5cc(O)ccc5n4)c3)cc2C(F)(F)F)CC1 | 1.51
5. COc1cnc2c(c1)C(=O)c1c-2n(CCCNCCO)c(=O)c2cc(OC)c(OC)cc12 | 1.67
6. O=C(NO)c1ccc(-c2nc3ccc4[nH]ncc4c3c3c2CCCC3)cc1 | 2.92
7. N#Cc1c(NC(=O)c2ccc(C(F)(F)F)c(Cl)c2)sc2c1CCC(=O)C2 | -44.9
8. O=C(Nc1ccc(I)cc1F)c1cc(-c2ccc(F)cc2F)ccc1O | 17.2
9. O=C(c1ccc(Cl)cc1)C1[C@H](c2ccccc2Br)[C@@H](c2ccccc2)NC12C(=O)Nc1ccc(Cl)cc12 (stereo partly specified) | 7.63
10. COc1ccc(-c2ccc(/C=N/NC(=O)c3[nH]c4ccc(Br)cc4c3-c3ccccc3)o2)cc1 | 18.3
11. COC1=C[C@]23CCC(=O)N2CCc2cc4c(cc2[C@@H]3[C@@H]1OC(=O)CCCC(C)C)OCO4 | 19.2

====

# System: SNB-75 CNS
# ASSAY_NAME: NCI-60 one-dose screen, 48 h (100 = growth as untreated, 0 = no growth, -100 = all killed)
# ASSAY_SETUP: 10 µM
The panel holds about 83,000 compounds, 20% with a hit somewhere; the sample as a whole holds those more often.
Threshold check on growth: strictly below 60% is True; on or above 60% is False.

1) CC(=O)C1=C(C)NC(SCC(=O)Nc2ccc(S(=O)(=O)Nc3cc(C)on3)cc2)=NC1c1ccccc1 (centres undefined) | False
2) CCCCSc1nc(Nc2ccc(/C(C)=N/NC(N)=S)cc2)c(C#N)c(-c2ccc(OC)cc2)n1 | True
3) CS(=O)(=O)Nc1ccc(-c2ccc3c(c2)ncn3-c2ccc(NC(=O)Nc3ccc(Cl)c(C(F)(F)F)c3)cc2)cc1 | True
4) COc1ccc(N(C)c2cc(C#N)nc3ccccc23)cc1N | True
5) CCOP(=O)(OCC)O[C@H]1CC[C@]2(C)[C@H]3CC[C@@H]4[C@@H]([C@](C)(O)CCC=C(C)C)CC[C@@]4(C)[C@]3(C)CC[C@H]2C1(C)C | True
6) Cc1ccc2nc(COc3ccc(C(=O)NNC(=S)NCCc4ccccc4)cc3)[nH]c2c1 | False
7) Cc1noc2c(Cc3ccccc3)nn(CC(=O)N/N=C/c3ccc(F)cc3)c(=O)c12 | True
8) CC[C@@]1(O)C(=O)OCc2c1cc1n(c2=O)Cc2c-1nc1cc(F)c(C)c3c1c2[C@@H](N)CC3 | True
9) Nc1nc2c(F)c(F)c(F)c(F)c2s1 | False
10) O=C(CSc1nnc(-c2c[nH]c3ccccc23)n1-c1ccccc1)Nc1ccc(C(=O)/C=C/c2ccccc2Cl)cc1 | False
11) CC(=O)c1ccc(NC(=O)NCn2c(=O)[nH]c3ccccc3c2=O)cc1 | False
12) CC(C)(C)Nc1nc2cc(Cl)c(Cl)cc2nc1S(C)(=O)=O | True
13) CN1CCN(c2ccc(C(=O)/C=C/c3ccc(OC(F)F)cc3)cc2)CC1 | False
14) O=C1Nc2cc(-c3ccc(NC(=O)c4cccc([N+](=O)[O-])c4)cc3)ccc2/C1=C/c1ccc[nH]1 | False
15) Cc1cc2nc3c4ccccc4n(CCO)c3nc2cc1C | False
16) COc1cc2c3c(n(CCCn4ccnc4)c(=O)c2cc1OC)-c1nc2c(cc1C3=O)OCO2 | False
17) O=C1N/C(=N\c2nccs2)S/C1=C\c1cccs1 | False
18) CC1=C2C(=C[C@@](C)(COCOCCCl)[C@@H]2O)C(=O)[C@](C)(O)C12CC2 | True

====

// reported growth per item
# System: TK-10 renal
# ASSAY_NAME: NCI-60 one-dose screen, 48 h (100 = growth as untreated, 0 = no growth, -100 = all killed)
# ASSAY_SETUP: 10 µM
# Experimental: Growth inhibition of the TK-10 human tumor cell line is measured as a screen for anti-cancer activity. Cells are grown in 96 well plates and exposed to the test compound for 48 hours. Compounds are tested at a single concentration, which is 10^-5 M for most compounds. The reported endpoint is percent growth (GI% or GIPRCNT), where numbers from 0 - 100% represent growth inhibition, and numbers from -100% - 0 represent cell death. For example, a value of 40 represents 60% growth inhibition. […]
Compounds without any hit were thinned out: in the full panel of roughly 83,000, 20% have a hit.
VALUE_KIND: growth (%)

1) C/C(=N\N=C\c1ccc(Cl)c([N+](=O)[O-])c1)c1ccc2c(c1)Nc1ccccc1S2 | 77
2) CN1CCO/C1=C(/NC(=O)c1ccc(Cl)cc1)[P+](c1ccccc1)(c1ccccc1)c1ccccc1 | 99.6
3) NS(=O)(=O)c1ccc(NC(=O)CSc2ccc(-c3ccccc3)nn2)c(Br)c1 | 118
4) CCOC(=O)C1=C(N)N(c2ccc(C)cc2)C2=C(C(=O)CC(C)(C)C2)C1c1ccccc1OC (stereo unspecified) | 107
5) O=c1[nH]c2ccccc2cc1CSc1ccc(Nc2nccc(-c3ccc4c(c3)OCO4)n2)cc1 | 89.4
6) CN(C)c1ccc(/C=C/c2nc3ccccc3c(=O)n2CC(=O)Nc2ccccc2)cc1 | 95
7) COc1ccc(-c2cc(C(=O)N=Nc3c(O)[nH]c4ccccc34)c3ccccc3n2)cc1 | 19.2
8) CCCn1c(=O)c2[nH]c(-c3ccc(OCc4nc5ccc(C)cc5[nH]4)cc3)nc2n(CCC)c1=O | -51.8
9) O=C(CSc1ccc(-c2ccc(Cl)cc2)nn1)Nc1ccc(Cl)c(C(F)(F)F)c1 | 66
10) Nc1cccnc1/C=N/NC(=S)NCCNC(=O)c1ccc(-n2nc(-c3ccccc3O)nc2-c2ccccc2O)cc1 | 12.3
11) CC[C@]12C=CCN3CC[C@@]4(c5cc(C#CCNc6ccc(C)c(Nc7nccc(-c8cccnc8)n7)c6)c(OC)cc5N(C)[C@H]4[C@@](O)(C(=O)OC)[C@@H]1OC(C)=O)C32 (stereo partly specified) | 88
12) CCCCCCCCCCCCCCCCCCCC(=O)NCCc1c[nH]c2ccc(OC(=O)CCCC(=O)OCCOOCCOOCCOOCCOOCCOOCCOOCCOOCCOOCCOOCCOOCCOOCCOC)cc12 | 120
13) CC1(C)CC[C@]2(C(=O)O)CC[C@]3(C)C(=CC[C@@H]4[C@@]5(C)C/C(=C/c6ccncc6)[C@H](O)C(C)(C)[C@@H]5CC[C@]43C)[C@@H]2C1 | 46.9
14) O=c1cc(-c2ccccc2)oc2cc(OCCCNCc3ccccc3)cc(O)c12 | 37.3
15) O=c1[nH]c2ccccc2cc1CSc1ccc(Nc2nccc(-c3ccc(Cl)cc3)n2)cc1 | -64.2
16) Nc1nc(-c2ccccc2)cc(-c2cc3ccccc3nc2Cl)n1 | 111
17) CCN1CCN(c2ccc(NC(=O)Nc3ccc4c(c3F)CCN4c3ccnc(C(=O)NC)c3)cc2C(F)(F)F)CC1 | 118
18) Cc1cc(=O)oc2cc(OCCCCOc3ccc(/C=C/C(=O)Nc4ccc(F)c(Cl)c4)cc3)ccc12 | 112
19) O=C(Nc1cccc([N+](=O)[O-])c1)Nc1cccc([N+](=O)[O-])c1 | 84.2
20) O=C(NO)c1ccc(Cn2ccc3c(NCc4ccccc4)ncnc32)cc1 | -7.3
21) O=C(Nc1cccc(C(F)(F)F)c1)c1cncc(C#Cc2cnc3ccc(N4CCOCC4)nn23)c1 | 27.3
